- Target Under Test: UniProt:O43614
- Sequence (O43614 1-444): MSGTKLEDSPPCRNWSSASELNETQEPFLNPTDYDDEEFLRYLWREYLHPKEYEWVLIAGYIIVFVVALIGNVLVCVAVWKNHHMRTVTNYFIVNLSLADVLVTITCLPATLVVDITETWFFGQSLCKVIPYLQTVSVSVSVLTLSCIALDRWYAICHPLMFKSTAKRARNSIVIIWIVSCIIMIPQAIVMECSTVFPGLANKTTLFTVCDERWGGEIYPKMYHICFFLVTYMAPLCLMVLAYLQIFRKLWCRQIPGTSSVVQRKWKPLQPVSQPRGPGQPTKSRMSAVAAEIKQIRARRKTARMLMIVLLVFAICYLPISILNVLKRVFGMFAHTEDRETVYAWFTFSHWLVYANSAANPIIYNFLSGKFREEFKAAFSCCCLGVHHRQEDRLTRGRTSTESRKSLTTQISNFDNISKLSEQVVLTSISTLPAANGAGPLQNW
- Experiment Summary: Orexin-receptor binding ability, [125I]-OX-A, CHO cell membranes expressing OX2
- Parameters: expressed in transfected cells; host or cells: CHO cells (membrane preparation)
- Applied Conditions: membranes of recombinant CHO cells, 0.2 nM [125I]-OX-A tracer; read-out: OX2 (IC50)
Property Name: IC50 (nM)
Give bare numbers, in nM.

[
  {
    "Compound": "Cc1nn(C)c(=O)cc1OC[C@@]1(c2ccccc2)C[C@H]1C(=O)Nc1ccc(Cl)cn1",
    "IC50, nM": 59
  },
  {
    "Compound": "CCn1nc(C)cc1OCC1(c2ccccc2)CC1C(=O)Nc1ccc(F)cn1 (stereo not shown)",
    "IC50, nM": 45
  }
]

Go through the list and state IC50 for each entry.
1. Cc1cc(NC(=O)[C@@H]2C[C@@]2(COc2cc(=O)n(C)nc2C)c2ccccc2)ncc1F
2. CCn1cc(OC[C@@]2(c3cccc(F)c3)C[C@H]2C(=O)Nc2cc(OC)c(F)cn2)c(C)n1

39
93

---

- Target Under Test: OX1 (Homo sapiens)
- Sequence (O43613 whole entry): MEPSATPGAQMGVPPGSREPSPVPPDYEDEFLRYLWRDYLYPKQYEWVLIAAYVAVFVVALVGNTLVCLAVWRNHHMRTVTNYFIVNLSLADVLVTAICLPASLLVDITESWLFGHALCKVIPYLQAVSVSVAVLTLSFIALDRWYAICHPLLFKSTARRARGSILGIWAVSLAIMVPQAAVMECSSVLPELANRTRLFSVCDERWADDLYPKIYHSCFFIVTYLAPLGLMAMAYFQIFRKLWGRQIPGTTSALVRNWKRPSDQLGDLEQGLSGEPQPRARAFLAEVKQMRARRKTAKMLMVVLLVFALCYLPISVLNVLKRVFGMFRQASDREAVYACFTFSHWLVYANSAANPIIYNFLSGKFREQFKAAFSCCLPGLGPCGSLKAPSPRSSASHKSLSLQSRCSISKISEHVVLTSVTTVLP
- Experiment Summary: Antagonism PLAP reporter assay, HEK-293 cells expressing human OX1
- Applied Conditions: HEK-293, 1 nM human OX-A; IC50 converted to Ki by Cheng-Prusoff equation
Could you please mark 1 (yes) for values of Ki below 0.4 µM and 0 (no) for values at or above it?

[
  {
    "Compound": "Cc1ccc(OCC2(c3ccccc3)CC2C(=O)Nc2ccc(Cl)cn2)c(C)n1 (stereo not drawn)",
    "Label Class": "0 (no)"
  },
  {
    "Compound": "COc1ccc(OCC2(c3ccccc3)CC2C(=O)Nc2cccc(F)n2)cc1OC (stereo not drawn)",
    "Label Class": "1 (yes)"
  },
  {
    "Compound": "COc1ccc(OCC2(c3ccccc3)CC2C(=O)Nc2cc(C#N)ccn2)cc1OC (stereo not drawn)",
    "Label Class": "1 (yes)"
  }
]

Is 0.4 µM strictly greater than the compound's reported Ki? compound: CCn1cc(OC[C@@]2(c3ccccc3)C[C@H]2C(=O)Nc2ccc(F)cn2)ccc1=O (racemic)
1 (yes)

Also check CCn1cc(OCC2(c3ccccc3)CC2C(=O)Nc2ccc(Cl)cn2)cn1 (stereo not drawn)
0 (no)

Also check COc1ccc(OCC2(c3ccccc3)CC2C(=O)Nc2cc(Cl)ccn2)cc1OC (stereo not drawn)
1 (yes)

Also check COc1ccc(OCC2(c3ccccc3)CC2C(=O)Nc2cccc(C)n2)cc1OC (stereo not drawn)
0 (no)

Also check COc1ccc(OCC2(c3ccccc3)CC2C(=O)Nc2nc(C)cs2)cc1OC (stereo not drawn)
0 (no)

---

Could you please report measured pIC50 for the items listed next?
- Target Under Test: OX2 (Homo sapiens)
- Experiment Summary: Orexin-receptor binding ability, [125I]-OX-A, CHO cell membranes expressing OX2
- Set-up: expressed in transfected cells; host or cells: CHO cells (membrane preparation)
- Applied Conditions: membranes of recombinant CHO cells, 0.2 nM [125I]-OX-A tracer; read-out: OX2 (IC50)
Answers are plain numbers, as −log10 of the molar value.

Solved cases (5 shown):
[
  {
    "Molecule": "Cc1nc(C(F)F)nn1CC[C@@]1(c2ccccc2)C[C@H]1C(=O)Nc1ccc(C#N)cn1 [Example 112]",
    "pIC50": 7.48
  },
  {
    "Molecule": "Cc1cnc(OC[C@@]2(c3ccccc3)C[C@H]2C(=O)Nc2ccc(F)cn2)c(C)n1 [Example 65]",
    "pIC50": 7.59
  },
  {
    "Molecule": "COc1ccc(OC[C@@]2(c3ccccc3)C[C@H]2C(=O)Nc2ccc(C#N)cn2)cc1OC [Example 4]",
    "pIC50": 7.89
  },
  {
    "Molecule": "COc1ccc(CCC2(c3ccccc3)CC2C(=O)Nc2ccccn2)cc1OC (centres unmarked) [Example 99]",
    "pIC50": 7.37
  },
  {
    "Molecule": "Cc1nc(C(F)F)nn1CC[C@@]1(c2ccccc2)C[C@H]1C(=O)Nc1ccc(F)cn1 [Example 109]",
    "pIC50": 7.15
  }
]

Go through the list and state pIC50 for each entry.
1. Cc1nn(C)cc1OCC1(c2ccccc2)CC1C(=O)Nc1ccc(Cl)cn1 (centres unmarked) [Example 83]
2. CCn1cc(OCC2(c3ccccc3)CC2C(=O)Nc2ccc(C#N)cn2)cn1 (centres unmarked) [Example 80]
3. CCn1cc(OC[C@@]2(c3cccc(F)c3)C[C@H]2C(=O)Nc2ccc(F)cn2)c(C)n1 [Example 87]
4. CCn1cc(CCC2(c3ccccc3)CC2C(=O)Nc2ccc(Cl)cn2)cn1 (centres unmarked) [Example 102]

1. 7.82
2. 7.27
3. 7.68
4. 7.66

Go through the list and state pIC50 for each entry.
1. CCn1cc(OC[C@@]2(c3cccc(F)c3)C[C@H]2C(=O)Nc2ccc(F)cc2)c(C)n1 [Example 88]
2. COc1ccc(OCC2(c3ccccc3)CC2C(=O)Nc2cc(C)on2)cc1OC (centres unmarked) [Example 21]
3. COc1ccc(OCC2(c3ccccc3)CC2C(=O)Nc2cc(C)ns2)cc1OC (centres unmarked) [Example 40]

[7.92, 7.55, 7.44]

---

Could you please report measured log10 of IC50 for the items listed next?
- Target Under Test: OX2 (Homo sapiens)
- Experiment Summary: Orexin-receptor binding ability, [125I]-OX-A, CHO cell membranes expressing OX2
- Parameters: expressed in transfected cells; host or cells: CHO cells (membrane preparation)
- Applied Conditions: membranes of recombinant CHO cells, 0.2 nM [125I]-OX-A tracer; read-out: OX2 (IC50)
Base-10 log of IC50, unit nM.

Solved cases (4 shown):
[
  {
    "Molecule": "Cc1nn(C)c(=O)cc1OC[C@@]1(c2ccccc2)C[C@H]1C(=O)Nc1ccc(F)cc1",
    "log10 of IC50": 1.43
  },
  {
    "Molecule": "Cc1nc(C(F)(F)F)nn1CC[C@@]1(c2ccccc2)C[C@H]1C(=O)Nc1ccc(F)cn1",
    "log10 of IC50": 1.28
  },
  {
    "Molecule": "Cc1cnc(OC[C@@]2(c3ccccc3)C[C@H]2C(=O)Nc2ccc(Cl)cn2)c(C)n1",
    "log10 of IC50": 0.85
  },
  {
    "Molecule": "CCn1cc(OC[C@@]2(c3cccc(F)c3)C[C@H]2C(=O)Nc2ccnc(F)c2)c(C)n1",
    "log10 of IC50": 1.97
  }
]

Go through the list and state log10 of IC50 for each entry.
1. COc1ccc(OCC2(c3ccccc3)CC2C(=O)Nc2ncc(C)s2)cc1OC (centres unmarked)
2. CCn1cc(OCC2(c3ccccc3)CC2C(=O)Nc2ccc(F)cn2)c(C)n1 (centres unmarked)
3. CCn1nc(C)c(Cl)c1OCC1(c2ccccc2)CC1C(=O)Nc1ccc(F)cn1 (centres unmarked)
4. CCc1nc(C)c(CC[C@@]2(c3ccccc3)C[C@H]2C(=O)Nc2ccc(C#N)cn2)s1

[1.54, 1.73, 1.48, 0.95]

---

Could you please report measured IC50 for the items listed next?
- Target Under Test: OX2 (Homo sapiens)
- Sequence (O43614 1-444): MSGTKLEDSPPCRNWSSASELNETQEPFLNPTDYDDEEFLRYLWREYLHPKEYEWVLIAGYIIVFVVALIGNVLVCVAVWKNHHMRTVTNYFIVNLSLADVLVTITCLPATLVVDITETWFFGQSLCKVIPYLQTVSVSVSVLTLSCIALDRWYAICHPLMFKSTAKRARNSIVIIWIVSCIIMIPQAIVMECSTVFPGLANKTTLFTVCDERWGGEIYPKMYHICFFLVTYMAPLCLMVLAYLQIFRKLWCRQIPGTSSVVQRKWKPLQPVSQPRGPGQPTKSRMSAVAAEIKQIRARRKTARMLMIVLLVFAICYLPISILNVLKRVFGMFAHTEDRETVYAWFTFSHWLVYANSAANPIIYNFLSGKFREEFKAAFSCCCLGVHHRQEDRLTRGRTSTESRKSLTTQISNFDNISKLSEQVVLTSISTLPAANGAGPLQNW
- Experiment Summary: Orexin-receptor binding ability, [125I]-OX-A, CHO cell membranes expressing OX2
- Design: expressed in transfected cells; host or cells: CHO cells (membrane preparation)
- Applied Conditions: membranes of recombinant CHO cells, 0.2 nM [125I]-OX-A tracer; read-out: OX2 (IC50)
Answers are plain numbers, in nM.

[
  {
    "Compound": "COc1ccc(OCC2(c3ccccc3)CC2C(=O)Nc2ccc(F)cn2)cc1OC (stereo not shown)",
    "IC50, nM": 3
  },
  {
    "Compound": "COc1ccc(OCC2(c3ccccc3)CC2C(=O)Nc2cc(C)no2)cc1OC (stereo not shown)",
    "IC50, nM": 17
  },
  {
    "Compound": "CCn1cc(OC[C@@]2(c3cccc(F)c3)C[C@H]2C(=O)Nc2ccc(F)cn2)c(C)n1 [Example 86]",
    "IC50, nM": 5
  }
]

Return reported IC50; argument: COc1ccc(OCC2(c3ccccc3)CC2C(=O)Nc2cc(Cl)ccn2)cc1OC (stereo not shown)
25
